Molecular target: T1, human GITR (amino acids M1-V241, NCBI Accession #NP_004186.1) expressed on cells (human, UniProt Q9Y5U5 26-241)
T1 sequence: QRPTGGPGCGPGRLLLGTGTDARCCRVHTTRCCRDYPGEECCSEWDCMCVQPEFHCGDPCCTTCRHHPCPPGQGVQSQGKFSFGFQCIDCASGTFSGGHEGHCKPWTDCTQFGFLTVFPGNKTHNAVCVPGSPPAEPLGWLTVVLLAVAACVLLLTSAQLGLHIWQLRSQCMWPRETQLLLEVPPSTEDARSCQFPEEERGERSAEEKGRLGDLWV
Experiment: cell-based or functional assay
Readout type: fold activation, T-cell proliferation, plate-bound Ab 10.6 nM, donor 5

Binder	Result
H4H14516P (antibody, human IgG4, V domains shown, human IgG4 (H4H)) VH: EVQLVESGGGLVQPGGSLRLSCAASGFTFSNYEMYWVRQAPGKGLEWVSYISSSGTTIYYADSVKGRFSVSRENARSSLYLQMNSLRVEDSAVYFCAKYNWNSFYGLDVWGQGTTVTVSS VL: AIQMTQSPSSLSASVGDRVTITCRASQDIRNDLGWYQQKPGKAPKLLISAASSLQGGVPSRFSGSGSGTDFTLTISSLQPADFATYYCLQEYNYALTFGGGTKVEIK	4 fold
H4H14528P (antibody, human IgG4, V domains shown, human IgG4 (H4H)) VH: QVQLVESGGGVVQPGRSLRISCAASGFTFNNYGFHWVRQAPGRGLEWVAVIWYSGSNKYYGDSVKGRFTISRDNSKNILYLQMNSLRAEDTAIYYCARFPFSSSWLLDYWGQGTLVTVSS VL: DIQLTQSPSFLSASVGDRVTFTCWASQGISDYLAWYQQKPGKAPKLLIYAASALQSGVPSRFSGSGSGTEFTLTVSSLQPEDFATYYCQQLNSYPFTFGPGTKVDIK	8 fold
H4H14475P (antibody, human IgG4, V domains shown, human IgG4 (H4H)) VH: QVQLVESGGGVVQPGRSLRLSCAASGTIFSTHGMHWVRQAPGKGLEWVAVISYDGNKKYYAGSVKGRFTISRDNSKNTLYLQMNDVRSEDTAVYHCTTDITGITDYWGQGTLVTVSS VL: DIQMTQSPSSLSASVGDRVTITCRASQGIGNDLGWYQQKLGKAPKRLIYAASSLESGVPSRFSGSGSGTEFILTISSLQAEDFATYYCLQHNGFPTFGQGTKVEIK	2 fold
H4H14470P (antibody, human IgG4, V domains shown, human IgG4 (H4H)) VH: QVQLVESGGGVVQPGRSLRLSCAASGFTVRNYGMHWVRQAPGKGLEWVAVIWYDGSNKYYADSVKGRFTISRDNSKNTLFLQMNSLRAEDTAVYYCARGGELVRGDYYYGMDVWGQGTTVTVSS VL: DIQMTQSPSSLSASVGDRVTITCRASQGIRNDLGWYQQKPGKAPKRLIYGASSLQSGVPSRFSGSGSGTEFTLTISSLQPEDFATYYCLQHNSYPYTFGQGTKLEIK	3 fold
H4H14469P (antibody, human IgG4, V domains shown, human IgG4 (H4H)) VH: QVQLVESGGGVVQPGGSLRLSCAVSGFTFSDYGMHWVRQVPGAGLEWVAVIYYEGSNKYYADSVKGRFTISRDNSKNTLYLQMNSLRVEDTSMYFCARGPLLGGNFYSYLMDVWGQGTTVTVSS VL: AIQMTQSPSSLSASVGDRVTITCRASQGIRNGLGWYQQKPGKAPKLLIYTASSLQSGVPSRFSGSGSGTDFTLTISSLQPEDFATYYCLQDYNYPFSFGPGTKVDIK	12 fold
